Each recorded value in this set is attributed to patent US10501479B2.

testDetails: Animal PK study in rat via i.v., p.o. and s.c. administration
Assay type: in vivo
reportedConditions: plasma, iv, 5 mg/kg; rat, i.v.; read-out: PK Vd i.v. (R)
readout: Vd (L/kg)
Just the number in L/kg, nothing appended.

input: Answer with reported Vd of COc1cc(S(=O)(=O)Cc2ccc3c(c2)CCNC3)ccc1NC(=O)NC(C)c1cccc(Cl)c1Cl.Cl (stereo not shown) [H1415]
output: 39.7

* * *

testDetails: Metabolic stability in rat liver microsomes
Type: in vitro ADME
Recorded Metabolic Stability Study R = rat values for a group of compounds are listed next.
Just the number in µL/min/mg, nothing appended.

INSERT INTO assay_data (compound, readout, measured) VALUES
  ('COc1cc(S(=O)(=O)Cc2ccc3c(c2)C(F)CNC3)ccc1NC(=O)N[C@H](C)c1cccc(Cl)c1Cl (some centres unmarked)', 'Metabolic Stability Study R = rat', 204.6);

input: Answer with reported Metabolic Stability Study R = rat of CC(NC(=O)Nc1ccc(S(=O)(=O)Cc2ccc3c(c2)CN(C)C3)cc1)c1ccccc1 (centres unmarked)
output: 56

input: Answer with reported Metabolic Stability Study R = rat of CC(C)(N)Cc1ccc(CS(=O)(=O)c2ccc(NC(=O)NCc3cccc(Cl)c3Cl)cc2)cc1
output: 77.8

input: Answer with reported Metabolic Stability Study R = rat of CC(C)(N)Cc1ccc(NS(=O)(=O)c2ccc(NC(=O)NCc3ccccc3)cc2)cc1.Cl
output: 15.1

input: Answer with reported Metabolic Stability Study R = rat of C[C@H](NC(=O)Nc1ccc(S(=O)(=O)Cc2ccc3[nH]ccc3c2)cc1)c1cccc(Cl)c1Cl
output: 209.6

input: Answer with reported Metabolic Stability Study R = rat of C[C@@H](NC(=O)Nc1ccc(S(=O)(=O)Cc2ccc3c(c2)CNC3)cc1)c1ccccc1
output: 18

input: Answer with reported Metabolic Stability Study R = rat of C[C@H](NC(=O)Nc1ccc(S(=O)(=O)Cc2ccc3c(c2)CNC3)cc1)c1ccccc1
output: 18.5

* * *

testedOn: GHSR-1a (HEK293/GHSR1a cell line) (Homo sapiens)
Construct: expressed in transfected cells; host or cells: HEK293/GHSR1a cell line
Sequence (Q92847 whole entry): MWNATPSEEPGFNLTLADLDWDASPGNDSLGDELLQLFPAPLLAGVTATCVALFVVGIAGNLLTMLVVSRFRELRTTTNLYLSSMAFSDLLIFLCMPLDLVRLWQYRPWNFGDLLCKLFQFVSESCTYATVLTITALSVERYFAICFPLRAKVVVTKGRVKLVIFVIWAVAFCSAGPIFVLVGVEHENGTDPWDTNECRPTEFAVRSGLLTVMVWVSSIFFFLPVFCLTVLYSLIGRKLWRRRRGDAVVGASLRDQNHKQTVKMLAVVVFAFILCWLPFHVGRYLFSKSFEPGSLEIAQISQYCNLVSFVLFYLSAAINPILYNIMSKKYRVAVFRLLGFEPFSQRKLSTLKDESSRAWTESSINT
testDetails: Ghrelin antagonist potency (IC50) with calcium FLIPR assay, ghrelin 10 nM
Type: cell-based
reportedConditions: ghrelin antagonist potency, read-out: IC50 (Activity)
Recorded log10 of IC50 values for a group of compounds are listed next.
Friendly reminder: values = log10 of IC50, unit nM.

Worked cases, log10 of IC50 given:
INSERT INTO measurements (compound, measured) VALUES
  ('Cc1ccc(CS(=O)(=O)c2ccc(NC(=O)N[C@@H](C)c3cccc(Cl)c3Cl)cc2)cc1 [H0964]', 3.62),
  ('C[C@H](NC(=O)Nc1ccc(S(=O)(=O)Cc2ccc(CC(C)(C)N(C)C)cc2)cc1)c1cccc(Cl)c1Cl [H1010]', 1.62),
  ('C[C@H](NC(=O)Nc1ccc(S(=O)(=O)Nc2cnc(N)nc2)cc1)c1cccc(Cl)c1Cl [H1108]', 2.63),
  ('C[C@H](NC(=O)Nc1ccc(S(=O)(=O)Cc2ccc(CC(C)(C)N)cc2)cc1)c1cccc(Cl)c1Cl [H0969]', 1.72),
  ('COc1ccc([C@H](C)NC(=O)Nc2ccc(S(=O)(=O)Nc3ccc4c(c3)CCN(C(C)=O)C4)cc2)c(Cl)c1Cl [H1034]', 3.10),
  ('CCN1CCc2cc(NS(=O)(=O)c3ccc(NC(=O)N[C@@H](C)c4ccc(OC)c(Cl)c4Cl)cc3)ccc2C1 [H1018]', 2.00),
  ('O=C(NCc1cccc(Cl)c1Cl)Nc1ccc(S(=O)(=O)Cc2ccc3c(c2)CCN3)cc1 [H1048]', 4.23),
  ('CC(C)C(C)NC(=O)Nc1ccc(S(=O)(=O)Cc2ccc3c(c2)CN(C)C3)cc1 (stereo not shown) [H1229]', 2.46),
  ('O=C(NCc1cccc(Cl)c1Cl)Nc1ccc(S(=O)(=O)Cc2ccc3c(c2)CNCC3)cc1 [H1044]', 1.73),
  ('Cc1ccc(NS(=O)(=O)c2ccc(NC(=O)N[C@@H](C)c3cccc(Cl)c3Cl)cc2)cc1 [H0966]', 3.82);

input: Report measured log10 of IC50 on GHSR-1a (HEK293/GHSR1a cell line) (Homo sapiens); entry: CC(NC(=O)N(O)c1ccc(S(=O)(=O)Nc2ccc3c(c2)CNC3)cc1)c1cccc2ccccc12 (stereo not shown) [H1166]
output: 0.95

input: Report measured log10 of IC50 on GHSR-1a (HEK293/GHSR1a cell line) (Homo sapiens); entry: O=C(NCc1cccc(Cl)c1Cl)Nc1ccc(S(=O)(=O)Cc2ccc3c(c2)CCNC3)cc1 [H1040]
output: 1.50

input: Report measured log10 of IC50 on GHSR-1a (HEK293/GHSR1a cell line) (Homo sapiens); entry: CN1Cc2ccc(CS(=O)(=O)c3ccc(NC(=O)NCC(C)(C)C)cc3)cc2C1 [H1228]
output: 2.88

input: Report measured log10 of IC50 on GHSR-1a (HEK293/GHSR1a cell line) (Homo sapiens); entry: C[C@H](NC(=O)Nc1ccc(S(=O)(=O)Cc2ccc(CN)cc2)cc1)c1cccc(Cl)c1Cl [H1051]
output: 1.73

input: Report measured log10 of IC50 on GHSR-1a (HEK293/GHSR1a cell line) (Homo sapiens); entry: CN(Cc1ccccc1)C(=O)Nc1ccc(S(=O)(=O)Cc2ccc3c(c2)CNC3)cc1 [H1204]
output: 2.84

* * *

testedOn: recombinant human ghrelin receptor (HEK293/GRLN) (Homo sapiens, UniProt Q92847)
Construct: expressed in transfected cells
Sequence (Q92847 whole entry): as above
testDetails: Ghrelin inverse agonist potency (EC50) with IP-1 (IP-One HTRF) assay
Type: cell-based
reportedConditions: IP-1 assay, HEK293/GRLN; read-out: Activity EC50 (ghrelin inverse agonist potency)
readout: EC50

Worked cases, EC50 given:
INSERT INTO results (compound, measured) VALUES
  ('CN1Cc2ccc(CS(=O)(=O)c3ccc(NC(=O)N[C@H]4CCCc5ccccc54)cc3)cc2C1 [H1335]', '0.0699 µM'),
  ('CCN(CC)C1CCC(CS(=O)(=O)c2ccc(NC(=O)NC(C)c3cccc(Cl)c3Cl)cc2)CC1 (centres unmarked) [H1372]', '0.936 µM');

input: Answer with reported EC50 of CN1Cc2ccc(CS(=O)(=O)c3ccc(NC(=O)N[C@@H]4CCCc5ccccc54)cc3)cc2C1 [H1336]
output: 0.263 µM

input: Answer with reported EC50 of COc1cc(S(=O)(=O)Cc2ccc3c(c2)CC(C)N(C)C3)ccc1NC(=O)NC(C)c1ccccc1 (centres unmarked) [H1440]
output: 0.0029 µM

input: Answer with reported EC50 of C[C@H](NC(=O)Nc1ccc(S(=O)(=O)Cc2ccc3c(c2)CCN(C)CC3)cc1)c1ccccc1 [H1322]
output: 0.0815 µM

input: Answer with reported EC50 of COc1cc(S(=O)(=O)Cc2ccc3c(c2)CC(C)N(C)C3)ccc1NC(=O)NC(C)c1cccc(Cl)c1Cl (centres unmarked) [H1431]
output: 0.000657 µM

input: Answer with reported EC50 of COc1cc(S(=O)(=O)Cc2ccc3c(c2)CN(C)C3)ccc1NC(=O)NC(C)c1cccc(Cl)c1Cl (centres unmarked) [H1427]
output: 0.0007 µM

input: Answer with reported EC50 of CC(NC(=O)Nc1ccc(S(=O)(=O)Cc2ccc3c(c2)CNC3)cc1)c1cccnc1 (centres unmarked) [H1273]
output: 0.192 µM

* * *

testDetails: Metabolic stability in mouse liver microsomes
Format: in vitro ADME
readout: Metabolic Stability Study M = mouse (µL/min/mg)
Just the number in µL/min/mg, nothing appended.

Worked cases, Metabolic Stability Study M = mouse given:
INSERT INTO results (molecule, scaleunit, measured) VALUES
  ('CC(NC(=O)Nc1ccc(S(=O)(=O)Cc2ccc3c(c2)CNC3)cc1)c1c(F)cccc1F (centres unmarked)', 'µL/min/mg', 11.8),
  ('CC(NC(=O)Nc1ccc(S(=O)(=O)Cc2ccc3c(c2)CN(CC2CC2)C3)cc1)c1ccccc1 (centres unmarked)', 'µL/min/mg', 248),
  ('COc1cc(S(=O)(=O)Cc2ccc3c(c2)CNC3)ccc1NC(=O)N(C)C(C)c1ccccc1 (centres unmarked)', 'µL/min/mg', 80.5),
  ('C[C@H](NC(=O)Nc1ccc(S(=O)(=O)Nc2ccc(CO)cc2)cc1)c1cccc(Cl)c1Cl', 'µL/min/mg', 67.2),
  ('C[C@H](NC(=O)Nc1ccc(S(=O)(=O)Cc2ccc3[nH]ccc3c2)cc1)c1cccc(Cl)c1Cl', 'µL/min/mg', 151.4);

input: Answer with reported Metabolic Stability Study M = mouse of CCN1Cc2ccc(C(C)S(=O)(=O)c3ccc(NC(=O)NC(C)c4ccccc4)cc3)cc2C1 (centres unmarked)
output: 122.7

input: Answer with reported Metabolic Stability Study M = mouse of C[C@@H](NC(=O)Nc1ccc(S(=O)(=O)Nc2ccnc(N)n2)cc1)c1cccc(Cl)c1Cl
output: 36
